# Test system: Human BCMA (human) (UniProt Q02223)
# Assay overview: SPR, IgG immobilised, huBCMA analyte, 37 C
Measured koff accompanies every entry in the list below.
Report as a plain number; the unit s⁻¹ is understood.

L3.PY/L1.PH/H2.HA (antibody, V domains shown, IgG) VH: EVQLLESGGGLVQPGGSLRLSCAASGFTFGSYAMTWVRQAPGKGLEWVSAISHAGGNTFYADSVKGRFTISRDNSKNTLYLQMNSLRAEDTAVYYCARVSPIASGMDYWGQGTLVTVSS VL: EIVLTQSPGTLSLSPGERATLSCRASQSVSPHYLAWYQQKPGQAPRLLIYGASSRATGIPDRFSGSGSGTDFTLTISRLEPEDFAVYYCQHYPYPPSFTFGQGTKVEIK    0.00116

Any idea what koff was measured for L3.PY/L3.KY/H3.TAQ (antibody, V domains shown, IgG) VH: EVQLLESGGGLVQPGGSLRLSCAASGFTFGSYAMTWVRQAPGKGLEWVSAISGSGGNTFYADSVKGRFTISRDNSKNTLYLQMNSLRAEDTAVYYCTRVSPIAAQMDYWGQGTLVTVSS VL: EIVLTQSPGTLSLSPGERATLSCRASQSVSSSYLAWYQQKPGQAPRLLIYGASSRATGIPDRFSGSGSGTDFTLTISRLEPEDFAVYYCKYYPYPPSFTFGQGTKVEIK ?
0.000649

Query (binder): L3.PY/L1.PH/H3.TAQ (antibody, V domains shown, IgG) VH: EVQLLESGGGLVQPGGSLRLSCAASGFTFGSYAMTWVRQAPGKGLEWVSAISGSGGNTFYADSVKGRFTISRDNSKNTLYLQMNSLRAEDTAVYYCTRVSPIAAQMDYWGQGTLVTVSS VL: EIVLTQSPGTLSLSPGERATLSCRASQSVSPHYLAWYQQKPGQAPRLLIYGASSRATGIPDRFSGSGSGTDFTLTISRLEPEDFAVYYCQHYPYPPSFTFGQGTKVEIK ; field requested: koff
0.00213
